Target: T1, Acro SARS-CoV-2 (COVID-19) S1 protein (SARS-CoV-2, UniProt P0DTC2 16-685)
T1 construct: also called SARS-CoV-2 S1
Assay: SPR
API: label(entry) gives MET if the entry's Kd is strictly smaller than 60 nM; on equality or larger values it gives NOT MET.

{"BINDER": "variant 5-51 (Fc fusion) VHH: EVQLVESGGGLVQPGGSLRLSCAASGRPNSINWMGWFRQAPGKERQFVATITPGGNTNYADSVKGRFTISADNSKNTAYLLMNSLKPEDTAVYYCAAAAGTTWYGTLYEYDWGQGTLVTVSS", "LABEL_CLASS": "MET"}
{"BINDER": "variant 5-23 (Fc fusion) VHH: EVQLVESGGGLVQPGGSLRLSCAASGSIFSIDVMGWFRQAPGKEREFVAAISWSGESTLYADSVKGRFTISADNSKNTAYLQMNSLKPEDTAVYYCAAFDGYSGSDWGQGTLVTVSS", "LABEL_CLASS": "NOT MET"}
{"BINDER": "variant 6-71 (Fc fusion) VHH: EVQLVESGGGLVQPGGSLRLSCAASGITFSNDAMGWFRQAPGKEREFVAIITSSDTNDTTNYADSVKGRFTISADNSKNTAYLQMNSLKPEDTAVYYCARLHYYDSSGYFDYWGQGTLVTVSS", "LABEL_CLASS": "NOT MET"}
{"BINDER": "variant 6-66 (Fc fusion) VHH: EVQLVESGGGLVQPGGSLRLSCAASGLTFSLFAMGWFRQAPGKERELVAAISSGGSTDYADSVKGRFTISADNSKNTAYLQMNSLKPEDTAVYYCARGNTKYYYDSSGYSSAFDYWGQGTLVTVSS", "LABEL_CLASS": "NOT MET"}
{"BINDER": "variant 6-72 (Fc fusion) VHH: EVQLVESGGGLVQPGGSLRLSCAASGSTLSINAMGWFRQAPGKEREFVAAIDWSGGSTAYADSVKGRFTISADNSKNTAYLQMNSLKPEDTAVYYCARDSSATRTGPDYWGQGTLVTVSS", "LABEL_CLASS": "NOT MET"}
{"BINDER": "variant 5-68 (Fc fusion) VHH: EVQLVESGGGLVQPGGSLRLSCAASGFTFDHYTMGWFRQAPGKEREFVAAISGSENVTSYADSVKGRFTISADNSKNTAYLQMNSLKPEDTAVYYCAAEPYIPVRTMRHMTFLTWGQGTLVTVSS", "LABEL_CLASS": "NOT MET"}
{"BINDER": "variant 6-41 (Fc fusion) VHH: EVQLVESGGGLVQPGGSLRLSCAASGFTFSTSWMGWFRQAPGKEREFVASINEYGGRNYADSVKGRFTISADNSKNTAYLQMNSLKPEDTAVYYCAGLHYYYDSSGYNPTEYYGMDVWGQGTLVTVSS", "LABEL_CLASS": "MET"}
{"BINDER": "variant 6-63 (Fc fusion, VHH-Fc) VHH: EVQLVESGGGLVQPGGSLRLSCAASGQTFNMGWFRQAPGKEREFVAAIGSGGSTSYADSVKGRFTISADNSKNTAYLQMNSLKPEDTAVYYCWRLGNDYFDYWGQGTLVTVSS", "LABEL_CLASS": "MET"}
{"BINDER": "variant 5-67 (Fc fusion) VHH: EVQLVESGGGLVQPGGSLRLSCAASGFNVNDYAMGWFRQAPGKEREFVAGITSSVGVTNYADSVKGRFTISADNSKNTAYLQMNSLKPEDTAVYYCAADIFFVNWGRGTLVTVSS", "LABEL_CLASS": "MET"}
{"BINDER": "variant 6-73 (Fc fusion, VHH-Fc) VHH: EVQLVESGGGLVQPGGSLRLSCAASGHTFSGYAMGWFRQAPGKEREFVAVITREGSTYYADSVKGRFTISADNSKNTAYLQMNSLKPEDTAVYYCARLGGEGFDYWGQGTLVTVSS", "LABEL_CLASS": "NOT MET"}
{"BINDER": "variant 6-57 (Fc fusion) VHH: EVQLVESGGGLVQPGGSLRLSCAASGLTFDDHSMGWFRQAPGKEREFVAAVPLSGNTYYADSVKGRFTISADNSKNTAYLQMNSLKPEDTAVYYCASFSGGPADFDYWGQGTLVTVSS", "LABEL_CLASS": "NOT MET"}
